Below, each entry is listed with its recorded IC50.
Tested on: pERK in HCT116 cells
Assay: Inhibition of KRas phosphorylation of ERK (Cisbio HTRF pERK assay)
Conditions: Homo sapiens, HCT-116, read-out: Inhibition (HTRF IC50) of KRas-mediated Phosphorylation of ERK, HCT116
Reply with just the number (in nM).

Record excerpt, results attached:
• CCc1c(F)ccc2cc(O)cc(-c3ncc4c(N5CCC[C@@](C)(O)C5)nc(OCC5(CN(C)C)CC5)nc4c3F)c12 = 30
• CN(C)C(=O)c1cc2n(n1)CCCN(c1nc(OC[C@@]34CCCN3C[C@H](F)C4)nc3c(F)c(-c4cc(O)cc5ccc(F)c(Cl)c45)ncc13)C2 = 916
• O=C1CC2(CCCN(c3nc(OC[C@@]45CCCN4C[C@H](F)C5)nc4c(F)c(-c5cc(O)cc6ccc(F)c(Br)c56)ncc34)C2)N1 (stereo partly drawn) = 2210
• CN(C)CC1(COc2nc(N3CCCC4(CNS(=O)(=O)N4)C3)c3cnc(-c4cc(O)cc5ccc(F)c(Cl)c45)c(F)c3n2)CC1 (stereo not drawn) = 896
• CCc1c(F)ccc2cc(O)cc(-c3ncc4c(N5CCCC6(C5)CS(=O)(=O)C6)nc(OC[C@@]56CCCN5C[C@H](F)C6)nc4c3F)c12 = 3150

IC50 reading for CCc1c(F)ccc2cc(O)cc(-c3ncc4c(N5CCCn6nc(C(=O)N7CCCC7)cc6C5)nc(OC[C@@]56CCCN5C[C@H](F)C6)nc4c3F)c12 : 471

So, CCc1c(F)ccc2cc(O)cc(-c3ncc4c(N5CC6C(=O)NC(=O)C6C5)nc(OC[C@@]56CCCN5C[C@H](F)C6)nc4c3F)c12 (stereo partly drawn) ? Its IC50 was 620

IC50 measured on CCc1c(F)ccc2cc(O)cc(-c3ncc4c(N5CCOC[C@@](C)(O)C5)nc(OCC5(CN6CCCC6)CC5)nc4c3F)c12 = 39

C#Cc1c(F)ccc2cc(O)cc(-c3ncc4c(N5CC6CC(O)CC5C6)nc(OC[C@@]56CCCN5C[C@H](F)C6)nc4c3F)c12 (stereo partly drawn) has a reported IC50 of 190

Lab book: IC50 of CCc1c(F)ccc2cc(O)cc(-c3ncc4c(N5CCOCC(OC)C5)nc(OC[C@@]56CCCN5C[C@H](F)C6)nc4c3F)c12 (stereo partly drawn) noted as 474

The compound listed as CCc1c(F)ccc2cc(O)cc(-c3ncc4c(N5CCOC[C@@](C)(O)C5)nc(OC[C@@]56CCCN5C[C@H](F)C6)nc4c3F)c12 shows IC50 equal to 11

Memo: CCc1c(F)ccc2cc(O)cc(-c3ncc4c(N5C[C@@H]6C[C@H](C5)[C@H](O)C6)nc(OC[C@@]56CCCN5C[C@H](F)C6)nc4c3F)c12 (single isomer, unassigned) , reported IC50: 7

###

Molecular target: KRas G12V (Homo sapiens, UniProt P01116, G12V);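 also: KRas binding measured by TR-FRET displacement at room temperature, IC50 fitted from percent of control values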
Sequence (P01116 1-169 isoform P01116-2 G12V): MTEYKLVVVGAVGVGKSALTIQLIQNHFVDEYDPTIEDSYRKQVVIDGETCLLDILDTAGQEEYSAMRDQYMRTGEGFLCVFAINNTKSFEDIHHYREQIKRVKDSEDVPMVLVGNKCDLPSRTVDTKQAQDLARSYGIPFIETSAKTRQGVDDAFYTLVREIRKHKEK
Experiment: biochemical
Parameter: pIC50
Just so you know, pIC50 here is -log10 of the concentration in molar units; reply with that number alone.

• CCc1c(F)ccc2cc(O)cc(-c3ncc4c(N5CCCOC(C)(C)C5)nc(OC[C@@]56CCCN5C[C@H](F)C6)nc4c3F)c12 [Example 501] = 6.77

pIC50 for Fc1c(-c2cccc3cccc(F)c23)ncc2c(NCCNc3cccnc3)nc(OCC34CCCN3CCC4)nc12 [Example 211] is 4.83

get_value(item= CCc1c(F)ccc2cc(O)cc(-c3ncc4c(NCCN5CCNC5=O)nc(OC[C@@]56CCCN5C[C@H](F)C6)nc4c3F)c12 [Example 372] , readout=pIC50) returns 8.30

Noted for CCc1c(F)ccc2cc(O)cc(-c3ncc4c(N5CCCC(N6CCCS6(=O)=O)C5)nc(OC[C@@]56CCCN5C[C@H](F)C6)nc4c3F)c12 (stereo partly drawn) [Example 348] : its pIC50 reads 8.52
